assay-system: TLR1/TLR2 (Mus musculus, UniProt Q9EPQ1+Q9QUN7)
Sequence (Q9EPQ1 26-795): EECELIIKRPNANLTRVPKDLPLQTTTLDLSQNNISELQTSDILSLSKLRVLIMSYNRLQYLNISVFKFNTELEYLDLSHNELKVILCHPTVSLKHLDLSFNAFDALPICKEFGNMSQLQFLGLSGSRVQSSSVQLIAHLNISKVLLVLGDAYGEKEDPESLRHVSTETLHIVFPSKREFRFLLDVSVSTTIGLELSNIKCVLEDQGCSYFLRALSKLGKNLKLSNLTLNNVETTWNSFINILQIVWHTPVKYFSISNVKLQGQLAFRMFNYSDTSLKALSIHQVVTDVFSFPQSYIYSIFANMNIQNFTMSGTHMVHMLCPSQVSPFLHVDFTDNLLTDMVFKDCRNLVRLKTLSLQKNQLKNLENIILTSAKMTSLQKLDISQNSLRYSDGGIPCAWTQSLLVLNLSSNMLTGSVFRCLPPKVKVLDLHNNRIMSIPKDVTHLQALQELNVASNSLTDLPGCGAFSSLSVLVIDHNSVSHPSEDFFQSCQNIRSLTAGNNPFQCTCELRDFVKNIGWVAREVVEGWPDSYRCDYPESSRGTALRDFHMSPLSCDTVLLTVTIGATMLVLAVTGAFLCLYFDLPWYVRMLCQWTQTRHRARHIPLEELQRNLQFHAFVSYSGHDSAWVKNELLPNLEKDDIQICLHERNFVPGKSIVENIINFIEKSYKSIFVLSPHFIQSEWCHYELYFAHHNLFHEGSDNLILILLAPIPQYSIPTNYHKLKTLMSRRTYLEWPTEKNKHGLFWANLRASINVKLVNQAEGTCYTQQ
Sequence (Q9QUN7 25-784): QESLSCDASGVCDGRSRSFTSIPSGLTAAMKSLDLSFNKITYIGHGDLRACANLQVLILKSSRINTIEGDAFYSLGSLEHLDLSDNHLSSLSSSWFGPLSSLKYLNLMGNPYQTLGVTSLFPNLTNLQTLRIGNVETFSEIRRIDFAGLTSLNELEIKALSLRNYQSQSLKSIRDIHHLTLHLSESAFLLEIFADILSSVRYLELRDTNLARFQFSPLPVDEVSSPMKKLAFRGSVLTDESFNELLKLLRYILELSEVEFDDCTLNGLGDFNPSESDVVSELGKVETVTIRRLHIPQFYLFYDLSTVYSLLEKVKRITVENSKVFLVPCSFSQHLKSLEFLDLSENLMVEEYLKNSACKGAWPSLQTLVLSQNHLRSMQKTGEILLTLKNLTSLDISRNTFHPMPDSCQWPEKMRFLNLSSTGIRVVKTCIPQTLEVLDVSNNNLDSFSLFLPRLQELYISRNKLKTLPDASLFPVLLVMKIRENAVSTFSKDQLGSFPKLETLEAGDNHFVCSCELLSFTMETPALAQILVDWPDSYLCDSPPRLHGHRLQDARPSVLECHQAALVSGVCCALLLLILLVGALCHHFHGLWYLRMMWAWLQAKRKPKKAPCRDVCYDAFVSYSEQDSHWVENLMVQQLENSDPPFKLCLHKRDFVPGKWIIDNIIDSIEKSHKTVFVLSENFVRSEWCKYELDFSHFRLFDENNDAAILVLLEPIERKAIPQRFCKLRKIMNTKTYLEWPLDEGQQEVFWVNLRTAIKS
assay-method-text: TNF-α release from thioglycolate-elicited mouse peritoneal macrophages (ELISA)
condition-info: 4 h, read-out: Efficacy (magnitude) of response versus diprovocim-1 (100%), mouse macrophages
readout-name: Emax (%)
I only need the number, in %, no unit after it.

Given the molecule `CC(C)(C)OC(=O)C(=O)NCC(=O)OCCCCCCCCCCCCNC(=O)[C@@H]1CN(C(=O)c2ccc(C(=O)N3C[C@@H](C(=O)N[C@H]4C[C@@H]4c4ccccc4)[C@H](C(=O)N[C@H]4C[C@@H]4c4ccccc4)C3)cc2)C[C@H]1C(=O)N[C@H]1C[C@@H]1c1ccccc1` and test system TLR1/TLR2 (Mus musculus, UniProt Q9EPQ1+Q9QUN7), the measured Emax is 400

Summary: `[N-]=[N+]=NCCCCCCCCCCCCNC(=O)[C@@H]1CN(C(=O)c2ccc(C(=O)N3C[C@@H](C(=O)N[C@H]4C[C@@H]4c4ccccc4)[C@H](C(=O)N[C@H]4C[C@@H]4c4ccccc4)C3)cc2)C[C@H]1C(=O)N[C@H]1C[C@@H]1c1ccccc1` , TLR1/TLR2 (Mus musculus, UniProt Q9EPQ1+Q9QUN7), Emax = 50

Let me check: `O=C(NCCCCCCCCCCCCO)[C@@H]1CN(C(=O)c2ccc(C(=O)N3C[C@@H](C(=O)N[C@H]4C[C@@H]4c4ccccc4)[C@H](C(=O)N[C@H]4C[C@@H]4c4ccccc4)C3)cc2)C[C@H]1C(=O)N[C@H]1C[C@@H]1c1ccccc1` , system TLR1/TLR2 (Mus musculus, UniProt Q9EPQ1+Q9QUN7), measured Emax is 110

Measured on TLR1/TLR2 (Mus musculus, UniProt Q9EPQ1+Q9QUN7), `C[C@H](NC(=O)OC(C)(C)C)C(=O)OCCCCCCCCCCCCNC(=O)[C@@H]1CN(C(=O)c2ccc(C(=O)N3C[C@@H](C(=O)N[C@H]4C[C@@H]4c4ccccc4)[C@H](C(=O)N[C@H]4C[C@@H]4c4ccccc4)C3)cc2)C[C@H]1C(=O)N[C@H]1C[C@@H]1c1ccccc1` has a documented Emax of 200

Tested on TLR1/TLR2 (Mus musculus, UniProt Q9EPQ1+Q9QUN7), the item `CC(C)(C)OC(=O)N[C@@H](CSCc1ccccc1)C(=O)OCCCCCCCCCCCCNC(=O)[C@@H]1CN(C(=O)c2ccc(C(=O)N3C[C@@H](C(=O)N[C@H]4C[C@@H]4c4ccccc4)[C@H](C(=O)N[C@H]4C[C@@H]4c4ccccc4)C3)cc2)C[C@H]1C(=O)N[C@H]1C[C@@H]1c1ccccc1` showed Emax equal to 200

Readout Emax for `O=C(O)c1ccc(C(=O)NCCOCCCCCCCCCCCCNC(=O)[C@@H]2CN(C(=O)c3ccc(C(=O)N4C[C@@H](C(=O)N[C@H]5C[C@@H]5c5ccccc5)[C@H](C(=O)N[C@H]5C[C@@H]5c5ccccc5)C4)cc3)C[C@H]2C(=O)N[C@H]2C[C@@H]2c2ccccc2)cc1` , test system TLR1/TLR2 (Mus musculus, UniProt Q9EPQ1+Q9QUN7), was 50

Others:
Record for `CC(C)(C)OC(=O)NCCCCCCCCCCCCNC(=O)[C@@H]1CN(C(=O)c2ccc(C(=O)N3C[C@@H](C(=O)N[C@H]4C[C@@H]4c4ccccc4)[C@H](C(=O)N[C@H]4C[C@@H]4c4ccccc4)C3)cc2)C[C@H]1C(=O)N[C@H]1C[C@@H]1c1ccccc1` under target or system TLR1/TLR2 (Mus musculus, UniProt Q9EPQ1+Q9QUN7): Emax reported as 120

Emax on TLR1/TLR2 (Mus musculus, UniProt Q9EPQ1+Q9QUN7) for `NCC(=O)OCCCCCCCCCCCCNC(=O)[C@@H]1CN(C(=O)c2ccc(C(=O)N3C[C@@H](C(=O)N[C@H]4C[C@@H]4c4ccccc4)[C@H](C(=O)N[C@H]4C[C@@H]4c4ccccc4)C3)cc2)C[C@H]1C(=O)N[C@H]1C[C@@H]1c1ccccc1` is 100

Item: `CN(C)CC(=O)OCCCCCCCCCCCCNC(=O)[C@@H]1CN(C(=O)c2ccc(C(=O)N3C[C@@H](C(=O)N[C@H]4C[C@@H]4c4ccccc4)[C@H](C(=O)N[C@H]4C[C@@H]4c4ccccc4)C3)cc2)C[C@H]1C(=O)N[C@H]1C[C@@H]1c1ccccc1` | System: TLR1/TLR2 (Mus musculus, UniProt Q9EPQ1+Q9QUN7) | Emax: 140

Let me check: `COC(=O)NCC(=O)OCCCCCCCCCCCCNC(=O)[C@@H]1CN(C(=O)c2ccc(C(=O)N3C[C@@H](C(=O)N[C@H]4C[C@@H]4c4ccccc4)[C@H](C(=O)N[C@H]4C[C@@H]4c4ccccc4)C3)cc2)C[C@H]1C(=O)N[C@H]1C[C@@H]1c1ccccc1` , system TLR1/TLR2 (Mus musculus, UniProt Q9EPQ1+Q9QUN7), measured Emax is 120
